- MEASUREMENT_NOTES: NCI Yeast Anticancer Drug Screen. Data for the rad50 strain (AID 155);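 also: 0% = growth of vehicle-only cultures of the same strain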
- PARTICULARS: S. cerevisiae rad50 strain growth inhibition; at 5.0 µM (retest, dose inferred, filed as 0.5); hits give high values
About 79,000 compounds went through this panel and 15% of them were active in at least one assay; those are over-represented in the sample as a whole. Active and inactive are the calls of the source. Rule as the data show it: active = growth inhibition above about 70%; inactive = the rest.
READOUT_LABEL: growth inhibition

### Prompt Name the recorded growth inhibition of the compound listed here: O=C(Cl)C(c1ccccc1)(c1ccccc1)c1ccccc1
### Response -3% (inactive)

### Prompt Name the recorded growth inhibition of the compound listed here: O=C1NC(c2ccccc2)(c2ccccc2)C(=O)N1SC(Cl)(Cl)Cl
### Response 98% (active)

### Prompt Name the recorded growth inhibition of the compound listed here: C=COCCN1CCN(CCCN2c3ccccc3Sc3ccc(C(F)(F)F)cc32)CC1
### Response -4% (inactive)

### Prompt Name the recorded growth inhibition of the compound listed here: Cc1c2cnccc2c(C)c2c1c1ccccc1n2CCOC(=O)c1ccccc1
### Response 9% (inactive)

### Prompt Name the recorded growth inhibition of the compound listed here: Clc1cc(Cl)c(OCCOCCI)c(Cl)c1
### Response 0% (inactive)

### Prompt Name the recorded growth inhibition of the compound listed here: CCc1c(C)[nH]c(-c2csc(N)n2)c1C
### Response -1% (inactive)

### Prompt Name the recorded growth inhibition of the compound listed here: COc1ccc2nccc(C(=O)CBr)c2c1
### Response 24% (inactive)

### Prompt Name the recorded growth inhibition of the compound listed here: COc1ccc2nc3cc(Cl)ccc3c(NCCC[N+](C)(C)CCCCCCCCCC[N+](C)(C)CCCNc3c4ccc(Cl)cc4nc4ccc(OC)cc34)c2c1
### Response 44% (inactive)

### Prompt Name the recorded growth inhibition of the compound listed here: CSc1nc(NC2OC(CO)C(O)C(O)C2O)c(Cl)c(=O)[nH]1 (stereo not given)
### Response -1% (inactive)

### Prompt Name the recorded growth inhibition of the compound listed here: CC(=O)OCC1OC(n2ncc3c(Sc4c([N+](=O)[O-])ncn4C)ncnc32)C(OC(C)=O)C1OC(C)=O (stereo not given)
### Response 23% (inactive)

---

- MEASUREMENT_NOTES: NCI Yeast Anticancer Drug Screen. Data for the cln2 rad14 strain (AID 165);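 also: 0% = growth equal to vehicle treated cultures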
- PARTICULARS: S. cerevisiae cln2 rad14 strain, at 50.0 µM (retest, dose inferred, filed as 5.0), hits give high values
The panel holds about 79,000 compounds, 15% with a hit somewhere; the sample as a whole holds those more often.
READOUT_LABEL: growth inhibition (%)
Express the result in % but write the number alone.

### Prompt Name the recorded growth inhibition of the molecule listed here: C1CCC2[N-]CC3CCCCC3[N-]CC3CCCCC3[N-]CC3CCCCC3[N-]CC2C1.[Cl][Fe]([Cl])([Cl])[Cl].[Fe+6] (centres undefined)
### Response 96

### Prompt Name the recorded growth inhibition of the molecule listed here: COc1ccc2ccccc2c1-c1c(O)ccc2ccccc12
### Response 72

### Prompt Name the recorded growth inhibition of the molecule listed here: N#CC(C(=O)CCCC(=O)Nc1cccc([N+](=O)[O-])c1)c1cccc2ccccc12 (centres undefined)
### Response 11

### Prompt Name the recorded growth inhibition of the molecule listed here: Cc1c2cc[n+](C)cc2c(COC2OC(CO)C(O)C2O)c2c3ccccc3n(C)c12 (centres undefined)
### Response 24

### Prompt Name the recorded growth inhibition of the molecule listed here: COC1=CC(=O)C(O)=C/C1=C\C=C\c1ccccc1
### Response 99

### Prompt Name the recorded growth inhibition of the molecule listed here: COc1ccc(/C=C2/C(=O)NC3SC=C(c4cccc([N+](=O)[O-])c4)N23)cc1 (centres undefined)
### Response -23

### Prompt Name the recorded growth inhibition of the molecule listed here: O=C(O)c1ccc2c(O)c3ccccc3c(O)c2c1
### Response 50

### Prompt Name the recorded growth inhibition of the molecule listed here: O=[N+]([O-])c1ccc(O)c(-c2ccccc2)c1
### Response 99

### Prompt Name the recorded growth inhibition of the molecule listed here: O=Cc1c(O)ccc2ccccc12.[Cu+2]
### Response 42

### Prompt Name the recorded growth inhibition of the molecule listed here: O=C1OC(c2cccc(Cl)c2)Sc2ccccc21 (centres undefined)
### Response 47

### Prompt Name the recorded growth inhibition of the molecule listed here: CC(C)O[C@H]1N(C2CC(N=[N+]=[N-])C(CO)O2)C(=O)NC(=O)[C@]1(C)Br (some centres undefined)
### Response 37

### Prompt Name the recorded growth inhibition of the molecule listed here: Clc1nc2cc3nc(Cl)c(Cl)nc3cc2nc1Cl
### Response 23

### Prompt Name the recorded growth inhibition of the molecule listed here: O=C(O)CCCNc1ncc2c(n1)-c1ccccc1OC2
### Response 15

### Prompt Name the recorded growth inhibition of the molecule listed here: S=C(S)NCCN1CCNC1=S
### Response 18

### Prompt Name the recorded growth inhibition of the molecule listed here: CCN(CC)C(=S)N=Nc1c(O)[nH]c2ccccc12
### Response 90

### Prompt Name the recorded growth inhibition of the molecule listed here: Cc1ccc(Cc2n[nH]c(=O)[nH]2)cc1
### Response 30

### Prompt Name the recorded growth inhibition of the molecule listed here: CCO/C=C1/N=C(c2cc(Cl)cc([N+](=O)[O-])c2)OC1=O
### Response 22

### Prompt Name the recorded growth inhibition of the molecule listed here: CCCC(C)NCCCCCNc1cc(OC)cc2cccnc12 (centres undefined)
### Response 40

### Prompt Name the recorded growth inhibition of the molecule listed here: O=C(CCl)Nc1cc(Cl)ccc1Cl
### Response 20

### Prompt Name the recorded growth inhibition of the molecule listed here: Cc1nc2c(cnn2C)cc1CCc1ccccc1
### Response 50

### Prompt Name the recorded growth inhibition of the molecule listed here: NS(=O)(=O)c1ccc(Nc2c3ccccc3nc3c(C(=O)NC(CO)(CO)CO)cccc23)cc1
### Response -10

### Prompt Name the recorded growth inhibition of the molecule listed here: O=C(O)/C=C/c1ccc2c(c1)CCCC2
### Response 70

### Prompt Name the recorded growth inhibition of the molecule listed here: CN(C)C=Nc1ccc2nonc2c1
### Response 23

### Prompt Name the recorded growth inhibition of the molecule listed here: CC12CCC(C(Br)(Br)C1=O)C2(C)C (centres undefined)
### Response 41

---

- MEASUREMENT_NOTES: NCI Yeast Anticancer Drug Screen. Data for the sgs1 mgt1 strain (AID 161);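 also: 0% = growth of cultures given vehicle only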
- PARTICULARS: S. cerevisiae sgs1 mgt1 strain, at 50.0 µM
This is part of a sample that, as a whole, favours compounds with a hit. Of some 79,000 tested, about 15% had one in any assay. Active and inactive are the calls of the source. Cut-off read from the data, not from the text of the source: active = growth inhibition above about 70%; inactive = the rest.
Respond using exactly one of the listed classes: y for active, n for inactive

### Prompt What did the test return for O=C1C=CC(=O)N1c1ccc(-c2ccc(N3C(=O)C=CC3=O)cc2)cc1 ?
### Response n

### Prompt What did the test return for C=C(C)C(CC=C(C)C)Cc1c(O)cc(OC)c2c1OC(c1ccc(O)cc1O)C(O)C2=O (configuration not stated) ?
### Response n

### Prompt What did the test return for CCCCCCCC/C=C\CCCCCCCC(=O)NCC[N+](C)(C)C ?
### Response y

### Prompt What did the test return for C=CCC1=C(C)C(OC(=O)/C=C/c2ccccc2Cl)CC1=O (configuration not stated) ?
### Response y

### Prompt What did the test return for Cc1nc2[nH]cc(C)c2c(=O)[nH]1 ?
### Response n

### Prompt What did the test return for O=C(O)CCCCCCCCC(=O)CCl ?
### Response y

### Prompt What did the test return for Nc1nc(N)c2nc(Sc3ccc(F)cc3)c(N)nc2n1 ?
### Response n

### Prompt What did the test return for CCC(C)(O)C#Cc1ccc(C)nc1 (configuration not stated) ?
### Response n

### Prompt What did the test return for Nc1cccc2cccnc12 ?
### Response y

### Prompt What did the test return for C[CH2][Ge]([CH2]C)[CH2]C.C[CH2][Ge]([Cl])[CH2]C.C[CH2][Ge][CH2]C ?
### Response y

### Prompt What did the test return for CCN(CC)C(=O)C(C)OC(C)=O (configuration not stated) ?
### Response n

### Prompt What did the test return for ClC(Cl)(Cl)/C=C/c1cnc2ccccc2n1 ?
### Response n

---

- MEASUREMENT_NOTES: NCI Yeast Anticancer Drug Screen. Data for the bub3 strain (AID 167)
- PARTICULARS: S. cerevisiae bub3 mutant strain, at 5.0 µM (retest, dose inferred, filed as 0.5), hits give high values
The panel holds about 79,000 compounds, 15% with a hit somewhere; the sample as a whole holds those more often.
Task for the reader: assign each of the following molecules its reported growth inhibition.
Express the result in % but write the number alone.

### Prompt Name the recorded growth inhibition of the molecule listed here: FC(F)(F)c1ccc(NC(=S)SCc2ccc(Cl)cc2)cc1
### Response 26

### Prompt Name the recorded growth inhibition of the molecule listed here: Nc1nc(N)c2nc(CNc3ccc(C(=O)NC(CCC(=O)O)C(=O)O)cc3)ccc2n1 (stereo not given)
### Response 7

### Prompt Name the recorded growth inhibition of the molecule listed here: CCCCCCCCCCCCCCNC(=O)CCC(NC(=O)c1ccc(N(C)Cc2cnc3nc(N)nc(N)c3n2)cc1)C(=O)NCCCCCCCCCCCCCC (stereo not given)
### Response 24

### Prompt Name the recorded growth inhibition of the molecule listed here: CC(CN(C)C)C(=O)/C=C/c1c(Cl)cccc1Cl (stereo not given)
### Response -1

### Prompt Name the recorded growth inhibition of the molecule listed here: O=C(O)c1c2c(c(O)c3c1CN(C1CCCCC1)CO3)OCN(C1CCCCC1)C2
### Response 2

### Prompt Name the recorded growth inhibition of the molecule listed here: Brc1ccc2[nH]c3nc4ccc5ccccc5c4nc3c2c1
### Response 6

### Prompt Name the recorded growth inhibition of the molecule listed here: Cc1ccc(S(=O)(=O)OCCCCOS(=O)(=O)c2ccc(C)cc2)cc1
### Response -2

### Prompt Name the recorded growth inhibition of the molecule listed here: CCN(CC)CCCNc1ccc([N+](=O)[O-])c2nc3ccc(OC)cc3c(N)c12
### Response -11

### Prompt Name the recorded growth inhibition of the molecule listed here: Cc1c2ccccc2c(CCl)c2ccc3ccccc3c12
### Response 99

### Prompt Name the recorded growth inhibition of the molecule listed here: CN1CCN(CCSC2Cc3cc(Cl)ccc3Sc3ccccc32)CC1 (stereo not given)
### Response 16

Entry source: PubChem BioAssay (NCI)
